Where do the numbers come from? From patent US20230414780A1.

# target entity: T1, rhesus monkey transferrin receptor (rhTfR) fused to EGFP, on CHO cells (rhesus monkey)
# T1 construct: whole, on cells; also called rhesus monkey TfR
# measurement notes: apparent Kd, flow cytometry, CHO cells
# Protocol: The binding properties of VHHs with affinity for the TfR from different species (i.e., human (h), mouse (m) and rhesus monkey (rh)) were tested using flow cytometry, and apparent affinities (Kd app) were determined. All experiments were performed in 96 well plates using 2×10⁵ cells/well, at 4° C. with shaking. […] Fluorescence levels were assessed using an Attune NxT flow cytometer (Thermo Fisher Scientific). […]
measurement type: Kd (nM)
One number for each entry, in nM.

>>> assay_result("C5^h16 (VHH) VHH: EVQLVESGGGLVQPGGSLRLSCAASGTDFSINFIRWYRQAPGKGLEFVAGFTATGNTNYADSVKGRFTISRDNSKNTLYLQMNSLRAEDTAVYYCYMLDKWGQGTLVTVSS")
760

Now for another entry.
[Q] Specify Kd for B8^V30 (VHH) VHH: EVQLVESGGGVVQPGGSLRLSCAASGEIFSINFMRWYRQAPGKQREWVAGFTRDGSTNYPDSAKGRFTISRDNAKNTVYLQIDSLKPEDTAVYYCYMQDTWGQGTQVTVSS and stop.
[A] 505
